Biological target: GST-PcrV (strain PAO1, amino acid residues 1-294) (Pseudomonas aeruginosa strain PAO1)
Experiment: SPR Biacore T100, GST-PcrV immobilised
readout.label: pKd
A value of pKd is the negative decimal logarithm of a concentration given in moles per litre.

Sample Nanobody 2B10 (VHH, also called 02B10) VHH: EVQLVESGGGLVQPGGSLRLSCAASGSIFSINNMGWYRQAPGKQRELVTVVTSNLITTYADSVKGRFTISRDNAKNTVYLQMNSLKPEDTAVYYCNAWARSVGSVPYSQFWGQGTLVTVSS ; pKd observed: 9.30

Sample Nanobody 7C10 (VHH) VHH: EVQLVESGGGLVQAGGSLRLSCTASGRTLSSYTMGWFRQAPGTEREFVAAMTRSGFNTYYADSVKGRFTISRDSTENTMALQMSSLKPEDTAVYYCTAGRGLTSYRADYWGQGTLVTVSS ; pKd observed: 8.70

Sample Nanobody 3E10 (VHH) VHH: EVQLVESGGGLVQAGGSLRLSCTASGHTFSSYTMGWFRQAPGKEREFVAAMTRSGFNTHYSDSVKGRFTISRDNTSRDNTKITMALQMNSLKPEDTAVYYCTTGRGLTSYVANFWGQGTQVTVSS ; pKd observed: 9.00

Sample Nanobody 5H01 (VHH, also called 05H01) VHH: EVQLVESGGGLVQPGGSLRLSCAASGSTLDYYAIGWFRQAPGKEREGVSCTSNSGSTYYGGSVKGRFTASRDNAKNTVYLQMNSLRPEDTAVYYCVATIGCATLGGTLDVQRYYYRGQGTQVTVSS ; pKd observed: 9.00

Sample Nanobody 5E02 (VHH) VHH: EVQLVESGGGLVQPGGSLRLSCAASGITLDSIAICWFRQAPGKEREGVSCSRGSDGSTYYADSVKGRFTISRVNAKNTVYLQMNSLKPEDTAVYYCAAAPSIFYSGGYFPSGMDYWGKGTQVTVSS ; pKd observed: 8.40

Sample Nanobody 4G10 (VHH) VHH: EVQLVESGGGLVQAGGSLRLSCVISEDGVRNYDMGWFRQAPGKEREFVATINWSGGSTNYADSVKGRFTVSRDNAKNTMYLQMDSLKPEDTAVYYCVAAGFYNNYLRTAPNDWNDWGQGTQVTVSS ; pKd observed: 8.30
